Reference source: patent US20070196866A1

biological target: mouse TRPA1 (Mus musculus); construct: expressed in transfected cells; host or cells: CHO cells; test: FLIPR intracellular calcium assay, mouse TRPA1-expressing CHO cells; format: cell-based; details: FLIPR, mTRPA1; read-out: concentration for half maximal activation (EC50)
Sequence (Q8BLA8 whole entry): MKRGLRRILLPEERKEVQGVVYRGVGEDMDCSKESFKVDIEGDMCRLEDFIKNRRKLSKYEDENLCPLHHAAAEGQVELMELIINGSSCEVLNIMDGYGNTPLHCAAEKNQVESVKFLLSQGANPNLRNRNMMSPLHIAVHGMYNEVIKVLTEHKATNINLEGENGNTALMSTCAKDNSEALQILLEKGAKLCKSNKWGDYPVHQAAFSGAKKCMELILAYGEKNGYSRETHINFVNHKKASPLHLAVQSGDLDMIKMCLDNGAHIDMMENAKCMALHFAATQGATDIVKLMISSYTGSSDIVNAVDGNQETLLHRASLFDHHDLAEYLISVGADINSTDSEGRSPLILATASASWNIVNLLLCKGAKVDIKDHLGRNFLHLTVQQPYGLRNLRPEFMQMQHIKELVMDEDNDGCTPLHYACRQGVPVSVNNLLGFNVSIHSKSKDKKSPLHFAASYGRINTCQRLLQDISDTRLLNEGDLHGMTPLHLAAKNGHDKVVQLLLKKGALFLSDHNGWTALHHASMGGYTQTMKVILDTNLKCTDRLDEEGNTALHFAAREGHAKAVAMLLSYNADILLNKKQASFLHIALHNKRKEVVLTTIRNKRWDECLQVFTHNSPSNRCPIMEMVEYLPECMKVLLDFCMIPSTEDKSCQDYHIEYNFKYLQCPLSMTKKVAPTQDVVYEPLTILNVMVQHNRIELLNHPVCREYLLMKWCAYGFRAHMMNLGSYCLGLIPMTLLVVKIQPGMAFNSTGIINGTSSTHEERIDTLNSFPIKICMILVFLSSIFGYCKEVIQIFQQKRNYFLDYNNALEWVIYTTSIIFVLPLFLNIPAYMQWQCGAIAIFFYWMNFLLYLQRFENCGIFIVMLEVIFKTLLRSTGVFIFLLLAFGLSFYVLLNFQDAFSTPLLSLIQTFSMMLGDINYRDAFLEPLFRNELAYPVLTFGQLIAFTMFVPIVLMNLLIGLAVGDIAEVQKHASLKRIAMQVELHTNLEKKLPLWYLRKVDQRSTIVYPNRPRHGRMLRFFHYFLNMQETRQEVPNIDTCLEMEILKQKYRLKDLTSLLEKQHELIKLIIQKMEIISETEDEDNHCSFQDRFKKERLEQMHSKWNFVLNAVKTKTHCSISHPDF
Parameter EC50: see the listing below.
// return numeric value only (unit: µM, not printed)

[[record]]
compound = "C=CCS[S+]([O-])CC=C (centres unmarked) [allicin, diallyl disulfide oxide]"
test_readout = "EC50"
reading = 1.32


Q: Supply recorded EC50 for C=CCN=C=S [allyl isothiocyanate] here.
A: 22
